tested on: MIA PaCa2 cells expressing KRAS-G12C; test: Cell proliferation assay (Cell Titer Glo), MIA PaCa2; format: cell-based; conditions: Homo sapiens, MIA PaCa-2, 72 h, ATP content (Cell Titer Glo)
GI50: recorded values
measured parameter: GI50 (nM)

INSERT INTO measurements (molecule, recorded_measurement) VALUES
  ('C=CC(=O)N1CCN2c3nc(=O)n(-c4c(C)ccnc4C(C)C)c4c(F)c(-c5c(O)cccc5F)nc(c34)OC[C@H]2C1 (atropisomer, axis not shown) [Compound 10A]', 333),
  ('C=CC(=O)N1C[C@@H]2COc3c(F)c(-c4c(O)cccc4F)nc4c3c(nc(=O)n4-c3c(C)ccnc3C(C)C)N2[C@@H](C)C1 (single isomer, unassigned)', 304),
  ('C=CC(=O)N1CCN2c3nc(=O)n(-c4c(C)ccnc4C(C)C)c4cc(-c5c(N)cccc5F)c(F)c(c34)OC[C@H]2C1 [Compound 12A]', 54);

Data provenance is patent US20220298174A1.
